ASSAY PROCEDURE: refractive index (Na D-line) (dimensionless); mn = molality of the nth substance listed, in mol/kg
RUN PARAMETERS: 308.15 K; 101 kPa; Liquid; Standard Abbe refractometry; m1 = 0.9
READOUT NAME: refractive index

In [3]: df
Out[3]:
                                   compound  recorded_number
0  O=P([O-])(O)O.[Li+] [lithium dihydrogen phosphate] + O           1.3444
1  O=P([O-])([O-])O.[Na+].[Na+] [disodium hydrogen phosphate] + O           1.3552
2  O=P([O-])([O-])[O-].[K+].[K+].[K+] [tripotassium phosphate] + O           1.3659
3  O=P([O-])(O)O.[Na+] [sodium dihydrogen phosphate] + O           1.3466
4  O=P([O-])([O-])O.[K+].[K+] [dipotassium hydrogen phosphate] + O           1.3547

* * *

ASSAY PROCEDURE: mn = molality of the nth substance listed, in mol/kg
RUN PARAMETERS: 303.15 K; 101 kPa; Liquid; Sing-around technique in a fixed-path interferometer; m1 = 0.3
READOUT NAME: speed of sound (m/s)

>>> print(df.to_string())
                                   compound  recorded_number
0  O=P([O-])(O)O.[Na+] [sodium dihydrogen phosphate] + O           1538.5
1  O=P([O-])(O)O.[K+] [monopotassium phosphate] + O             1536
2  O=P([O-])([O-])[O-].[Na+].[Na+].[Na+] [trisodium phosphate] + O           1573.9
3  O=P([O-])(O)O.[Li+] [lithium dihydrogen phosphate] + O           1536.8
4  O=P([O-])([O-])O.[Na+].[Na+] [disodium hydrogen phosphate] + O           1560.1
5          O=P(O)(O)O [phosphoric acid] + O           1510.2
6  O=P([O-])([O-])O.[K+].[K+] [dipotassium hydrogen phosphate] + O           1553.8
7  O=P([O-])([O-])[O-].[K+].[K+].[K+] [tripotassium phosphate] + O           1570.2

* * *

ASSAY PROCEDURE: refractive index (Na D-line) (dimensionless); mn = molality of the nth substance listed, in mol/kg
RUN PARAMETERS: 298.15 K; 101 kPa; Liquid; Standard Abbe refractometry; m1 = 0.7
READOUT NAME: refractive index

>>> df
                                   molecule      readout_name  recorded_number
0  O=P([O-])(O)O.[Li+] [lithium dihydrogen phosphate] + O  refractive index           1.3421
1  O=P([O-])(O)O.[K+] [monopotassium phosphate] + O  refractive index           1.3435
2  O=P([O-])([O-])O.[K+].[K+] [dipotassium hydrogen phosphate] + O  refractive index           1.3506
3  O=P([O-])([O-])[O-].[K+].[K+].[K+] [tripotassium phosphate] + O  refractive index           1.3595
4  O=P([O-])([O-])O.[Na+].[Na+] [disodium hydrogen phosphate] + O  refractive index           1.3512
5  O=P([O-])([O-])[O-].[Na+].[Na+].[Na+] [trisodium phosphate] + O  refractive index           1.3588
6          O=P(O)(O)O [phosphoric acid] + O  refractive index           1.3381
7  O=P([O-])(O)O.[Na+] [sodium dihydrogen phosphate] + O  refractive index            1.344

* * *

ASSAY PROCEDURE: refractive index (Na D-line) (dimensionless); mn = molality of the nth substance listed, in mol/kg
RUN PARAMETERS: 298.15 K; 101 kPa; Liquid; Standard Abbe refractometry; m1 = 0.9
READOUT NAME: refractive index

>>> print(df.to_string())
                                   compound  recorded_number
0  O=P([O-])(O)O.[K+] [monopotassium phosphate] + O           1.3466
1  O=P([O-])([O-])O.[K+].[K+] [dipotassium hydrogen phosphate] + O           1.3557
2  O=P([O-])(O)O.[Na+] [sodium dihydrogen phosphate] + O           1.3492
3  O=P([O-])(O)O.[Li+] [lithium dihydrogen phosphate] + O           1.3452
4          O=P(O)(O)O [phosphoric acid] + O           1.3397
5  O=P([O-])([O-])[O-].[K+].[K+].[K+] [tripotassium phosphate] + O           1.3671
6  O=P([O-])([O-])[O-].[Na+].[Na+].[Na+] [trisodium phosphate] + O           1.3664
7  O=P([O-])([O-])O.[Na+].[Na+] [disodium hydrogen phosphate] + O           1.3562

* * *

ASSAY PROCEDURE: refractive index (Na D-line) (dimensionless); mn = molality of the nth substance listed, in mol/kg
RUN PARAMETERS: 298.15 K; 101 kPa; Liquid; Standard Abbe refractometry; m1 = 0.5
READOUT NAME: refractive index

                                   compound      readout_name  recorded_number
0  O=P([O-])([O-])[O-].[K+].[K+].[K+] [tripotassium phosphate] + O  refractive index           1.3517
1  O=P([O-])([O-])O.[Na+].[Na+] [disodium hydrogen phosphate] + O  refractive index           1.3457
2  O=P([O-])([O-])O.[K+].[K+] [dipotassium hydrogen phosphate] + O  refractive index           1.3456
3  O=P([O-])(O)O.[Li+] [lithium dihydrogen phosphate] + O  refractive index           1.3394
4  O=P([O-])(O)O.[Na+] [sodium dihydrogen phosphate] + O  refractive index           1.3408

* * *

ASSAY PROCEDURE: mn = molality of the nth substance listed, in mol/kg
RUN PARAMETERS: 303.15 K; 101 kPa; Liquid; Sing-around technique in a fixed-path interferometer; m1 = 0.9
READOUT NAME: speed of sound (m/s)

>>> print(df.to_string())
                                   molecule  measurement_units  recorded_number
0  O=P([O-])(O)O.[Li+] [lithium dihydrogen phosphate] + O                m/s             1593
1  O=P([O-])(O)O.[K+] [monopotassium phosphate] + O                m/s           1587.9
2          O=P(O)(O)O [phosphoric acid] + O                m/s           1515.1
3  O=P([O-])([O-])O.[Na+].[Na+] [disodium hydrogen phosphate] + O                m/s           1672.3
4  O=P([O-])([O-])[O-].[K+].[K+].[K+] [tripotassium phosphate] + O                m/s           1723.7
5  O=P([O-])([O-])O.[K+].[K+] [dipotassium hydrogen phosphate] + O                m/s           1651.1
6  O=P([O-])(O)O.[Na+] [sodium dihydrogen phosphate] + O                m/s           1579.2
7  O=P([O-])([O-])[O-].[Na+].[Na+].[Na+] [trisodium phosphate] + O                m/s           1722.6

* * *

ASSAY PROCEDURE: refractive index (Na D-line) (dimensionless); mn = molality of the nth substance listed, in mol/kg
RUN PARAMETERS: 303.15 K; 101 kPa; Liquid; Standard Abbe refractometry; m1 = 0.9
READOUT NAME: refractive index

In [3]: df
Out[3]:
                                   molecule  recorded_number
0  O=P([O-])(O)O.[Na+] [sodium dihydrogen phosphate] + O           1.3473
1  O=P([O-])([O-])O.[K+].[K+] [dipotassium hydrogen phosphate] + O           1.3554
2  O=P([O-])(O)O.[Li+] [lithium dihydrogen phosphate] + O           1.3448
3          O=P(O)(O)O [phosphoric acid] + O           1.3393
4  O=P([O-])(O)O.[K+] [monopotassium phosphate] + O           1.3463
5  O=P([O-])([O-])[O-].[K+].[K+].[K+] [tripotassium phosphate] + O           1.3667
6  O=P([O-])([O-])O.[Na+].[Na+] [disodium hydrogen phosphate] + O           1.3557
7  O=P([O-])([O-])[O-].[Na+].[Na+].[Na+] [trisodium phosphate] + O           1.3671

The values you see were collected from the NIST ThermoML archive (doi:10.1016/j.jct.2013.01.012).
